Origin of the recorded values: patent US8309558B2

# Tested on: HCV replicon cells
# ASSAY NOTES: HCV replicon FRET / luciferase assay (96-well plates)
# Format: cell-based
# MEASUREMENT PARAMETERS: Hepatitis C virus, Table 1a; HCV replicon; read-out: EC50
pEC50: −log10 of the molar value.
This listing pairs compounds with measured pEC50.

Example results:
CNC(=O)c1c(-c2ccc(F)cc2)oc2ccc(-c3cccc(C(=O)NCc4cccnc4)c3)cc12; 6.00 to 6.60
CNC(=O)c1c(-c2ccc(F)cc2)oc2ccc(-c3cccc(C(=O)NCC4CCCCC4)c3)cc12; 6.00 to 6.60
CNC(=O)c1c(-c2ccc(F)cc2)oc2ccc(-c3cccc(C(=O)NCCOC)c3)cc12 [drawing 182]; 5.00 to 6.00
CNC(=O)c1c(-c2ccc(F)cc2)oc2ccc(-c3cccc(C(=O)N[C@@H](CO)c4ccccc4)c3)cc12; 5.00 to 6.00
CNC(=O)c1c(-c2ccc(F)cc2)oc2ccc(-c3cccc(C(=O)N4CCC4)c3)cc12; 6.00 to 6.60
CNC(=O)c1c(-c2ccc(F)cc2)oc2ccc(-c3cccc(C(=O)NCC(C)(C)C)c3)cc12; > 6.60
CNC(=O)c1c(-c2ccc(F)cc2)oc2ccc(-c3cccc4[nH]ccc34)cc12; 6.00 to 6.60

Switching to the query record.
Given the entry `CNC(=O)c1c(-c2ccc(F)cc2)oc2ccc(-c3cccc(C(=O)Nc4ccc(C)cn4)c3)cc12` , report its measured pEC50.
> 6.60

----------
pIC50: recorded values
# SYSTEM: HCV NS5B RdRp genotype 1b (Hepatitis C virus genotype 1b, UniProt Q9WMX2)
# Construct: The protein was expressed with an 18 amino acid C-terminal truncation to enhance the solubility; made in house; host or cells: E. coli BL21(DE3), pET21a vector
# Sequence (Q9WMX2 2420-2992): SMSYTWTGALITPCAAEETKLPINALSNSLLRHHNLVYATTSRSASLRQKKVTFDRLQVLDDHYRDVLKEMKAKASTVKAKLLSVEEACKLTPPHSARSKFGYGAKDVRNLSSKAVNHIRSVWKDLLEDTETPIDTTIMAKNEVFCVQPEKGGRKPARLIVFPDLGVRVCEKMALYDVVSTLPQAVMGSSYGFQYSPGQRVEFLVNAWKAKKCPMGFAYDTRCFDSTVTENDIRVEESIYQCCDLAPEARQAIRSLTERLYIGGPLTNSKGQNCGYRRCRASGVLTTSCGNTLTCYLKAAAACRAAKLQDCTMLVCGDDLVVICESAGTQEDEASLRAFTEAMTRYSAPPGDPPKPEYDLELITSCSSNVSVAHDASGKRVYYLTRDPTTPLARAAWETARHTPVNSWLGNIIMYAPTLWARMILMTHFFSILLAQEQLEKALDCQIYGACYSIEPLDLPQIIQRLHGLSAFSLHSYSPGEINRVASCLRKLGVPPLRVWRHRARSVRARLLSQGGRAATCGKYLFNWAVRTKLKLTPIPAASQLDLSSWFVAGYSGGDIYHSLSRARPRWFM
# ASSAY NOTES: Standard HCV NS5B RdRp enzyme assay
# Format: biochemical
# MEASUREMENT PARAMETERS: untitled table after Table 1b; HCV NS5B RdRp genotype 1b; read-out: IC50
# Description: HCV NS5B RdRp cloning, expression, and purification. The cDNA encoding the NS5B protein of HCV, genotype 1b, was cloned into the pET21a expression vector. The protein was expressed with an 18 amino acid C-terminal truncation to enhance the solubility. […] Standard HCV NS5B RdRp enzyme assay. […] Plates were read on a Packard Top Count NXT after >1 hr incubation at room temperature. IC50 values for compounds were determined using seven different [I]. […]
Just the number, please; pIC50 means minus log10 of the concentration in mol/L.

See these solved cases before continuing.
CNC(=O)c1c(-c2ccc(F)cc2)oc2ccc(-c3cccc(C(=O)N(C)CCC#N)c3)cc12 [drawing 616]; 6.10
CCCC[C@H](CO)NC(=O)c1cccc(-c2ccc3oc(-c4ccc(F)cc4)c(C(=O)NC)c3c2)c1 [drawing 614]; 6.22
CNC(=O)c1c(-c2ccc(F)cc2)oc2ccc(-c3cc(C(=O)NC4(c5ccccc5)CC4)ccc3C)cc12 [drawing 601]; 7.70
CNC(=O)c1c(-c2ccc(F)cc2)oc2ccc(-c3cc(C(=O)NC4(c5nc(C)no5)CC4)ccc3C)cc12 [drawing 602]; 8.14
CNC(=O)c1c(-c2ccc(F)cc2)oc2ccc(-c3cc(C(=O)NC4(c5nc(C)no5)CC4)c(OC)cc3C)cc12 [drawing 598]; 7.70
CNC(=O)c1c(-c2ccc(F)cc2)oc2ccc(-c3cc(C(=O)NC(C)(C)c4ccccc4)ccc3OC)cc12 [drawing 608]; 8.02
CNC(=O)c1c(-c2ccc(F)cc2)oc2ccc(-c3cccc(C(=O)NC4(c5ccccc5)CC4)c3)cc12 [drawing 610]; 8.23
CNC(=O)c1c(-c2ccc(F)cc2)oc2cc(N)c(-c3cccc(C(=O)NC(C)(C)c4ccccc4)c3)cc12 [drawing 607]; 8.26

Request the reported pIC50 associated with CNC(=O)c1c(-c2ccc(F)cc2)oc2ccc(-c3ccc(C(=O)N(C)Cc4cccnc4)cc3)cc12 [drawing 620]
5.00

For `CNC(=O)c1c(-c2ccc(F)cc2)oc2ccc(-c3cccc(C(=O)O)c3OC)cc12` , what is its reported pIC50?
5.32

Give its pIC50 value. Item: CNC(=O)c1c(-c2ccc(F)cc2)oc2ccc(-c3cc(C(=O)NC4(c5ccccn5)CC4)cc(F)c3C)cc12 [drawing 600]
8.00

----------
# SYSTEM: HCV NS5B RdRp genotype 1b (Hepatitis C virus genotype 1b)
# Construct: The protein was expressed with an 18 amino acid C-terminal truncation to enhance the solubility; made in house; host or cells: E. coli BL21(DE3), pET21a vector
# ASSAY NOTES: Standard HCV NS5B RdRp enzyme assay
# Assay type: biochemical
# MEASUREMENT PARAMETERS: Table 1a; HCV NS5B RdRp genotype 1b; read-out: IC50
# Description: HCV NS5B RdRp cloning, expression, and purification. The cDNA encoding the NS5B protein of HCV, genotype 1b, was cloned into the pET21a expression vector. The protein was expressed with an 18 amino acid C-terminal truncation to enhance the solubility. […] Standard HCV NS5B RdRp enzyme assay. […] Plates were read on a Packard Top Count NXT after >1 hr incubation at room temperature. IC50 values for compounds were determined using seven different [I]. […]
pIC50: −log10 of the molar value.
pIC50: recorded values

// known answers, use as guide
CNC(=O)c1c(-c2ccc(F)cc2)oc2ccc(-c3cccc(C(=O)NCc4ccc(C)cc4)c3)cc12; > 6.60
CNC(=O)c1c(-c2ccc(F)cc2)oc2ccc(-c3cccc(C(=O)NCC4CCCCC4)c3)cc12; > 6.60
CNC(=O)c1c(-c2ccc(F)cc2)oc2ccc(-c3ccc(S(=O)(=O)NC)cc3)cc12; < 5.00

Record lookup: for HCV NS5B RdRp genotype 1b (Hepatitis C virus genotype 1b), what pIC50 belongs to `CNC(=O)c1c(-c2ccc(F)cc2)oc2ccc(-c3cccc(C(=O)NC(C)(C)C(=O)NCC(F)F)c3)cc12` ?
> 6.60

Field: pIC50 (HCV NS5B RdRp genotype 1b (Hepatitis C virus genotype 1b)). Entry: `CNC(=O)c1c(-c2ccc(F)cc2)oc2ccc(-c3cccc(C(=O)NC4CCCCCC4)c3)cc12`
> 6.60

Observed pIC50 on HCV NS5B RdRp genotype 1b (Hepatitis C virus genotype 1b) for CNC(=O)c1c(-c2ccc(F)cc2)oc2ccc(-c3cccc(C(=O)NC(C)c4cccnc4)c3)cc12 (stereo not shown) , please.
> 6.60

Return pIC50 measured with HCV NS5B RdRp genotype 1b (Hepatitis C virus genotype 1b) given this compound: `CNC(=O)c1c(-c2ccc(F)cc2)oc2ccc(-c3cccc(C(=O)Nc4ccccn4)c3)cc12`
> 6.60

Record `CNC(=O)c1c(-c2ccc(F)cc2)oc2ccc(-c3cccc(C(=O)N[C@@H](C)c4ccc(F)cc4)c3)cc12` : what is its pIC50 with HCV NS5B RdRp genotype 1b (Hepatitis C virus genotype 1b)?
> 6.60

----------
# SYSTEM: HCV NS5B RdRp genotype 1b (Hepatitis C virus genotype 1b)
# Construct: The protein was expressed with an 18 amino acid C-terminal truncation to enhance the solubility; made in house; host or cells: E. coli BL21(DE3), pET21a vector
# ASSAY NOTES: Standard HCV NS5B RdRp enzyme assay
# Format: biochemical
# MEASUREMENT PARAMETERS: Table 1b; HCV NS5B RdRp genotype 1b; read-out: IC50
MEASURED ATTRIBUTE: IC50

# annotated cases, reported IC50 shown
CNC(=O)c1c(-c2ccc(F)cc2)oc2ccc(-c3cc(C(=O)NCC(C)C)ccc3OCCc3ccc(Cl)cc3)cc12; > 10000 nM
CNC(=O)c1c(-c2ccc(F)cc2)oc2cc(N(C)S(C)(=O)=O)c(-c3cccc(C(=O)NC(C)(C)c4ccccc4)c3)cc12; < 250 nM
CNC(=O)c1c(-c2ccc(F)cc2)oc2ccc(-c3cccc(C(=O)NC4(c5ccccc5)CC4)c3OC)cc12; > 10000 nM

As a next step, examine the molecule that follows.
Request - read-out IC50 | tested on HCV NS5B RdRp genotype 1b (Hepatitis C virus genotype 1b) | molecule `CNC(=O)c1c(-c2ccc(F)cc2)oc2ccc(-c3cc(OCCn4ccnc4)cc(C(=O)NCC(C)C)c3)cc12`
1000 to 10000 nM

----------
# SYSTEM: HCV NS5B RdRp genotype 1b (Hepatitis C virus genotype 1b, UniProt Q9WMX2)
# Construct: The protein was expressed with an 18 amino acid C-terminal truncation to enhance the solubility; made in house; host or cells: E. coli BL21(DE3), pET21a vector
# ASSAY NOTES: Standard HCV NS5B RdRp enzyme assay
# Format: biochemical
# MEASUREMENT PARAMETERS: Table 1d (class symbols); HCV NS5B RdRp genotype 1b; read-out: IC50
pIC50: −log10 of the molar value.
MEASURED ATTRIBUTE: pIC50

CNC(=O)c1c(-c2ccc(F)cc2)oc2ccc(-c3cc(C(=O)NC4(c5cnc(C)cn5)CC4)ccc3C)c(F)c12; 6.60 to 9.00

Which pIC50 is reported for this molecule? `CNC(=O)c1c(-c2ccc(F)cc2)oc2ccc(-c3cc(C(=O)NC4(c5cccc(C)c5)CC4)c(OC)cc3C)cc12`
6.60 to 9.00

# input molecule: CNC(=O)c1c(-c2ccc(F)cc2)oc2ccc(-c3cc(C(=O)NC4(c5ncc(C)s5)CC4)ccc3C)cc12 [drawing 625] ; wanted: its pIC50
> 7.70

Param item = `CNC(=O)c1c(-c2ccc(F)cc2)oc2ccc(-c3cc(C(=O)NC4(c5ncc(C)o5)CC4)ccc3C)cc12` ; retrieve measured pIC50.
> 7.70
